Reference source for all entries: PubChem BioAssay (NCI)

test system: NCI-H226 lung; experiment: NCI tumour cell line growth inhibition, 48 h
Catalogue of TGI values
ASSAY METRIC: TGI

{"columns": ["MOLECULE", "ASSAY METRIC", "REPORTED VALUE"],
 "data": [
  ["CCn1cc(C(=O)O)c(=O)c2cc(F)c(N3CCNCC3)nc21", "TGI", "> 100 µM"],
  ["COc1ccc(-c2cc(-c3ccncc3)nc(N)c2-c2ccc(F)cc2)cc1", "TGI", "> 100 µM"],
  ["C=CCOC1=C(OC(C)=O)C(C2COC(C)(C)O2)OC1=O (centres undefined)", "TGI", "> 100 µM"],
  ["C=C1[C@@H]2CCC(C)(C)[C@H]1CCC(=O)[C@@H]2C(=O)OC", "TGI", "> 100 µM"]
]}

====

Catalogue of TGI values
system: SNB-75 CNS; experiment: NCI tumour cell line growth inhibition, 48 h

{"columns": ["COMPOUND", "MEASUREMENT TARGET", "TGI"],
 "data": [
  ["ClC1(Cl)C2CCOC21n1cnc2ccccc21 (stereo not drawn)", "SNB-75 CNS", "> 100 µM"],
  ["O=C1CCC(=O)C12CCc1ccccc12", "SNB-75 CNS", "> 100 µM"],
  ["CC(C)N=C(NC#N)NS(=O)(=O)c1cnccc1NC1CCCCCCC1", "SNB-75 CNS", "> 100 µM"]
]}

====

test system: NCI-H226 lung; assay: NCI tumour cell line growth inhibition, 48 h

{"columns": ["COMPOUND", "TGI"],
 "data": [
  ["CC(=O)SC(C[N+](=O)[O-])c1ccccc1 (stereo not drawn)", "5.72 µM"],
  ["CCOC(=O)CCNC(=O)c1cc(C)cc2c1Oc1c(cc(C)cc1C(=O)NCCC(=O)OCC)S2", "> 100 µM"],
  ["O=P1(NCCCl)OCCC(OO)N1CCCl (stereo not drawn)", "> 100 µM"]
]}

====

test system: EKVX NSCLC; test: NCI tumour cell line growth inhibition, 48 h; in the data active = GI50 below about 0.43 µM; inactive = the rest
Labels: active, inactive

{"columns": ["COMPOUND STRUCTURE", "ANSWER LABEL"],
 "data": [
  ["COc1ccc2c(c1)cn1c3ccc(OC)cc3[nH]c(=O)c21", "active"],
  ["COc1nc(C(Cl)(Cl)Cl)c(Cl)c(OC)c1Cl", "inactive"],
  ["COc1ccc(S(=O)(=O)Nc2c(/C=C\\c3cc(OC)c(OC)c(OC)c3)ccc(OC)c2O)cc1OC", "inactive"],
  ["CCc1cc(Cc2cc(CC)cc(C(C)(C)C)c2O)c(O)c(C(C)(C)C)c1", "inactive"]
]}

====

Catalogue of TGI values
system: HL-60(TB) leukemia; assay: NCI tumour cell line growth inhibition, 48 h

{"columns": ["MOLECULE", "TGI"],
 "data": [
  ["O=c1c2ccc(Br)cc2nc(-c2ccccc2)n1NC1OC(CO)C(O)C(O)C1O (stereo not drawn)", "> 100 µM"],
  ["O=[N+]([O-])c1cc(C2ON=C(c3ccccc3)N2C23CC4CC(CC(C4)C2)C3)ccc1Cl (stereo not drawn)", "> 100 µM"],
  ["C[C@]12CC[C@H](O)CC1CCC[C@@H]2O (stereo partly drawn)", "> 100 µM"]
]}
